System: ATS189
Test: qHTS profiling for inhibitors of Plasmodium falciparum proliferation (AID 504749); further: nearly all actives have a fitted effect of over 60% in size
Conditions: P. falciparum in erythrocytes, SYBR Green DNA, 72 h; series mostly up to 28.7 µM
Records with an inconclusive call do not appear. The source made the active and inactive calls. The call rests on the fitted dose curve; in most records, active means well fitted inhibition curve with a large enough effect; inconclusive means small, poorly fitted or top-dose-only effect; inactive means flat fitted curve, though single readings scatter.
Would you mind answering with one of these outcomes? t = active, f = inactive

COMPOUND | TEST SYSTEM | CLASS ASSIGNMENT
OCC1O[C@H](Oc2ccc(O)cc2)C(O)C(O)C1O (stereo partly specified) | ATS189 | f
CC1(C)C2CC[C@]1(C)[C@@H](O)C2 | ATS189 | f
CCC(C)C(N)C(=O)O (stereo unspecified) | ATS189 | f
C/C1=C2/[N-]C(C(CC(N)=O)[C@@]2(C)CCC(=O)NCC(C)OP(=O)([O-])O[C@H]2[C@@H](O)[C@@H](n3cnc4cc(C)c(C)cc43)O[C@@H]2CO)[C@]2(C)N=C(/C(C)=C3N=C(/C=C4N=C1C(CCC(N)=O)C\4(C)C)[C@@H](CCC(N)=O)[C@]\3(C)CC(N)=O)[C@@H](CCC(N)=O)[C@]2(C)CC(N)=O.CC(=O)O.[Co] (stereo partly specified) | ATS189 | f
CC1(Cn2ccnn2)[C@H](C(=O)O)N2C(=O)C[C@H]2S1(=O)=O (stereo partly specified) | ATS189 | f
CC(=O)N[C@H]1[C@H](O[C@@H]2c3ccc(c(Cl)c3)Oc3cc4cc(c3O[C@@H]3O[C@H](CO)[C@@H](O)[C@H](O)C3C)Oc3ccc(cc3Cl)C[C@H]3NC(=O)[C@@H](N)c5ccc(O)c(c5)Oc5cc(O)cc(c5)[C@H](NC3=O)C(=O)N[C@H]4C(=O)N[C@H]3C(=O)N[C@@H]2C(=O)N[C@@H](C(=O)O)c2cc(O)cc(O[C@H]4O[C@H](CO)[C@@H](O)C(O)[C@@H]4O)c2-c2cc3ccc2O)O[C@H](CO)[C@@H](O)[C@@H]1O (stereo partly specified) | ATS189 | f

Task: What did the test return for `Oc1cc2cc(CCN3CCN(c4nsc5ccccc45)CC3)c(Cl)cc2[nH]1` ?
Result: f

Task: Answer briefly: the call reported for CC(=O)OC1C([N+]2(C)CCCCC2)C[C@H]2C3CC[C@H]4C[C@H](OC(C)=O)C([N+]5(C)CCCCC5)CC4(C)C3CCC12C (stereo partly specified) in this assay.
Result: f

Task: Entry `CCN(CC)C(=O)Nc1ccc(OC[C@H](O)CNC(C)(C)C)c(C(C)=O)c1` : call = ?
Result: f

Task: Hi, do you know how C=C[C@@]1(C)C[C@H](OC(=O)CSC(C)(C)CNC(=O)[C@@H](N)C(C)C)[C@@]2(C)C(C)CC[C@@]3(CCC(=O)[C@@H]32)[C@H](C)[C@H]1O (stereo partly specified) came out in this test?
Result: t

Task: What classification did C[C@H]1OC(OC2C(O)[C@@H](O)C(OC3C(O)[C@@H](O)C(O)O[C@@H]3CO)O[C@@H]2CO)[C@H](O)C(O)C1N[C@H]1C=C(CO)[C@@H](O)[C@H](O)C1O (stereo partly specified) end up with in this test?
Result: f

The origin of these recorded values is PubChem BioAssay (NCATS).
